# System: Bone Marrow Derived Mesenchymal Stem Cells, human (BM-MSC); myofibroblast content
# assay text: Myofibroblast reduction phenotype in TGF-beta-1 fibrogenic differentiation culture (high-content imaging)
# Format: cell-based
# particulars: replicate experiment; read-out: IC50 Phenotype Replicate
readout label: pIC50
On this scale, pIC50 is minus log10 of a concentration expressed in M (mol/L).

Query :: Quick one: pIC50 for CN(C)c1cccc(-c2c3c(=O)n(-c4ccccc4Cl)[nH]c3cc(=O)n2C)c1 [FTX1620, Setanaxib] ?
Result :: 6.90

###

# System: Bone Marrow Derived Mesenchymal Stem Cells, human (BM-MSC); myofibroblast content
# assay text: Myofibroblast reduction phenotype in TGF-beta-1 fibrogenic differentiation culture (high-content imaging)
# Format: cell-based
# particulars: Homo sapiens, BMMSC; replicate experiment; unit nm [sic]; read-out: IC50 Phenotype Replicate
readout label: pIC50
On this scale, pIC50 is minus log10 of a concentration expressed in M (mol/L).

Query :: pIC50 of Cc1ccc(N2CCN(Cc3nc(N)nc(Nc4ccc(C)c(C)c4)n3)CC2)cc1 [FTX7983] on Bone Marrow Derived Mesenchymal Stem Cells, human (BM-MSC); myofibroblast content?
Result :: 6.40

###

# key: entry, value: pIC50
# Test system: Bone Marrow Derived Mesenchymal Stem Cells, human (BM-MSC); myofibroblast content
# assay text: Myofibroblast reduction phenotype in TGF-beta-1 fibrogenic differentiation culture (high-content imaging)
# Assay type: cell-based
# particulars: Homo sapiens, BMMSC; replicate experiment; read-out: IC50 Phenotype Replicate
On this scale, pIC50 is minus log10 of a concentration expressed in M (mol/L).

* COc1cc(NC(=O)c2ccc3cc(Cl)ccc3c2)c(C(=O)O)cc1C#N [FTX7995] | 7.96
* Cc1ccccc1CCNS(=O)(=O)c1c(Cl)cc(Br)cc1Cl [FTX7981] | 6.47

Continue with the compound presented below.
Query :: Quick one: pIC50 for CCOC(=O)c1c(NC(=O)CN2CCN(C(=O)c3ccco3)CC2)sc2c1CCC2 [FTX7971] ?
Result :: 5.28
